Origin of values: the supplement of paper PMC10567573

B1: ATL3 (parent)
chain: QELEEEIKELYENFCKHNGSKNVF

- Variants of: B1
- assay_overview: protein stability index of a GFP-peptide fusion (GPS, HEK-293T) (PSI 1-6); higher = more stable;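 note: lentivirally expressed fusions sorted by FACS into six bins by GFP to DsRed ratio, PSI derived from sequencing read proportions per bin multiplied by bin number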
- applied_conditions: c terminus: a fixed tail appended
Assignment: determine reported protein stability index for the given variants.
Answers are plain numbers.

Look up protein stability index for the entries below, preserving their order.
1. L10Y
2. K21T
3. C15S
4. K21C
5. V23K
6. E4F
7. K21N

1: 3.92; 2: 2.08; 3: 3.89; 4: 2.1; 5: 2.89; 6: 2.2; 7: 2.42
